This collection of values is drawn from patent US20200239579A1.

Target: T1, PDLoneECDHisCtag (human, UniProt Q9NZQ7 19-238)
T1 construct: Expressed in HEK-293F cells; theoretical molecular weight 29 kDa; also called recombinant human PD-L1 ECD; human PD-L1 (BLI); not shown: C-terminal His-tag; C-tag
T1 sequence (Q9NZQ7 19-238, form in doubt): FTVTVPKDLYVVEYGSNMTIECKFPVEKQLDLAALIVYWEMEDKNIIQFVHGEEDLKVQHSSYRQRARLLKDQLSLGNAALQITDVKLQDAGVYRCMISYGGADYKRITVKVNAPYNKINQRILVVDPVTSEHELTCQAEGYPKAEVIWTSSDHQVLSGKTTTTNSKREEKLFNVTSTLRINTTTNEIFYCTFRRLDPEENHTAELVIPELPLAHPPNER
Assay: BLI cross-block, second antibody on PDLoneECDHisCtag held by immobilised 516; plain = non-blocking
# association response of the second antibody listing for each entry below
Your answer should be a plain number; it is taken to be in nm.

Examples with their reported association response of the second antibody follow.
[
  {
    "binder": "IgG1-476-N101Q-LC33S-FEAR (antibody, V domains shown) VH: EVQMLESGGGLVQPGGSLRLSCAASGFTFRSYAMSWVRQAPGKGLEWVSGIGDSGGSTYHADSVKGRFTISRDNSKNTLYLQMNSLRAEDTAVYYCAKLGQSSGWYDHYYYYGMDVWGQGTTVTVSS VL: SYELTQPPSVSVSPGQTASITCSGDKLGNKYVSWFQQKPGQSPVLVIYRDSERPSGIPERFSGSNSGNTATLTISGTQAVDEADFYCQAWDSSTVVFGGGTKLTVL",
    "unit abbreviation": "nm",
    "meas value": 1.2
  },
  {
    "binder": "IgG1-338-FEAR (antibody, V domains shown) VH: EVQVVESGGGLVQPGGSLRLSCAASGFTFSRFWMSWVRQAPGKGLEWVANIKQDGGEKYYVDSVKGRFTISRDNAKNSLYLQMNSLRGEDTAVYYCARDDNWNGHFDYWGQGTLVTVSS VL: DIQMTQSPSTLSASVGDRVTITCRASQSISSWLAWYQQKPGKAPNLLIYKASSLESGVPSRFSGSGSGTEFTLTISSLQPDDFATYYCQQYYGSYITFGQGTRLEIKR",
    "unit abbreviation": "nm",
    "meas value": 1.1
  }
]

Please turn your attention to the following entry.
response.value for IgG1-321-FEAR (antibody, V domains shown) VH: EVQLVESGGGLVQPGGSLRLSCAASGFTFSSYWMSWVRQAPGKGLEWVANIKQDGNEKYYVDSVKGRFTISRDNAKNSLYVQMNSLRAEDTAVYYCARDLYYGSGTYPPFDYWGQGTLVTVSS VL: DIQMTQSPSTLSASVGDRVTITCRASQSISSWLAWYLQKPGKAPKLLIYKASSLESGVPSRFSGSGSGTEFTLTISSLQPDDFATYYCQQYHSSSYTFGQGTKLEIK (field: association response of the second antibody) = 1.1
